# Assay Target: WDR5 (Homo sapiens (Human), UniProt P61964)
# Run Description: Surface Plasmon Resonance (SPR) assay, KD and residence time
# Assay type: binding
# Test Settings: surface plasmon resonance (SPR); read-out: WDR5 binding affinity (KD)
pKd: −log10 of the molar value.
A collection of compounds and their measured pKd
Reported Endpoint: pKd

> print(dat)
                                   compound  measurement
1  CC1CN(c2cc(F)c(-c3cnc(N4CCC(C)(O)CC4)nc3)cc2NC(=O)c2ccc(F)cc2C(F)(F)F)CCN1C (stereo in doubt) [Example 613]         9.04
2  C[C@@H]1CN(c2cc(F)c(-c3cc(F)c(C(N)=O)c(F)c3)cc2NC(=O)c2c[nH]c(=O)cc2C(F)(F)F)C[C@H](C)N1C [Example 658]         8.73
3  C[C@@H]1CN(c2cc(F)c(-c3csc(C(=O)N(C)C4CCCCC4)n3)cc2NC(=O)c2c[nH]c(=O)cc2C(F)(F)F)C[C@H](C)N1C [Example 534]         8.88
